ELISA data by entry:
- Tested On: T1, CD81 (UniProt P60033 1-236, limits assumed)
- T1 construct: whole, on cells; also called CD81 receptor
- T1 sequence (looked up): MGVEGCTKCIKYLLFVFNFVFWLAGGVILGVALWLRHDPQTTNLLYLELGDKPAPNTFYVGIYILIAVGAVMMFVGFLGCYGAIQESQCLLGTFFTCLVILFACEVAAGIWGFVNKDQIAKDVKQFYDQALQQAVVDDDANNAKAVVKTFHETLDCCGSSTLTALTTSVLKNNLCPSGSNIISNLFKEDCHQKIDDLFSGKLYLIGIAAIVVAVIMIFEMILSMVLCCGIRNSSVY
- Experimental Details: cell ELISA;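 also: antibody binding to HuH7 cells expressing CD81 versus a CD81-negative HuH7 control line, bound antibody detected by secondary reagent, absorbance at 450 nm with 620 nm reference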
Measured Quantity: ELISA data

binder="CD81K04 HC CD81K04 / LC GG-06-hVK_1_39 (antibody, V domains shown, human constant region) VH: QVQLQQSGPELVKPGASVKISCKASGYTFSSSWMNWVKQRPGKGLEWIGRIYSGDGDAIYNGKFKGKATLTADKSSSTAYMQLSSLTSEDSAVYFCAREGKTGDLLLRSWGQGSALTVSS VL: DIQMTQSPSSLSASVGDRVTITCRASKSVSTSIYSYLNWYQQKPGKAPKLLIYYASYLQSGVPSRFSGSGSGTDFTLTISSLQPEDFATYYCQHSREFPYTFGQGTKLEIK" measured_quantity="ELISA data" data_value=0.185
binder="CD81K04 HC JA_GG-13-hVH_1_69 / LC GG-02-hVK_4_1 (antibody, V domains shown, human constant region) VH: QVQLVQSGAEVKKPGSSVKVSCKASGGTFSSSWMNWVRQAPGQGLEWMGRIYSGDGDAIYAQKFQGRVTITADESTSTAYMELSSLRSEDTAVYYCAREGKTGDLLLRSWGQGTLVTVSS VL: DIVMTQSPDSLAVSLGERATINCKSSKSVSTSIYSYMHWYQQKPGQPPKLLIYYASYRESGVPDRFSGSGSGTDFTLTISSLQAEDVAVYYCQHSREFPFTFGQGTKLEIK" measured_quantity="ELISA data" data_value=0.172
binder="CD81K04 HC JA_GG-13-hVH_1_69 / LC GG-03-hVK_4_1 (antibody, V domains shown, human constant region) VH: QVQLVQSGAEVKKPGSSVKVSCKASGGTFSSSWMNWVRQAPGQGLEWMGRIYSGDGDAIYAQKFQGRVTITADESTSTAYMELSSLRSEDTAVYYCAREGKTGDLLLRSWGQGTLVTVSS VL: DIVMTQSPDSLAVSLGERATINCKSSKSVSTSIYSYLAWYQQKPGQPPKLLIYYASYRESGVPDRFSGSGSGTDFTLTISSLQAEDVAVYYCQHSREFPFTFGQGTKLEIK" measured_quantity="ELISA data" data_value=0.115
binder="CD81K04 HC GG-05-hVH_1_18 / LC GG-06-hVK_1_39 (antibody, V domains shown, human constant region) VH: QVQLVQSGAEVKKPGASVKVSCKASGYTFSSSWMNWVRQAPGQGLEWMGRIYSGDGDAIYAQKLQGRVTMTTDTSTSTAYMELRSLRSDDTAVYYCAREGKTGDLLLRSWGQGTLVTVSS VL: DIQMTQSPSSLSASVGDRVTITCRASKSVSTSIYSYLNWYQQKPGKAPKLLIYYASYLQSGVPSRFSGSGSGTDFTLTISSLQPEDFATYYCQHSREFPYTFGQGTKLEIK" measured_quantity="ELISA data" data_value=0.149
binder="CD81K04 HC CD81K04 / LC CD81K04 (antibody, V domains shown, human constant region; also called CD81K04 (chimeric form)) VH: QVQLQQSGPELVKPGASVKISCKASGYTFSSSWMNWVKQRPGKGLEWIGRIYSGDGDAIYNGKFKGKATLTADKSSSTAYMQLSSLTSEDSAVYFCAREGKTGDLLLRSWGQGSALTVSS VL: DIVLTQSPASLSVSLGQRATISCRASKSVSTSIYSYMHWYQQKPGQPPKLLIKYASYLESGVPARFSGSGSGTDFTLNIHPVEEEDAATYYCEHSREFPFTFGTGTKLEIK" measured_quantity="ELISA data" data_value=1.14
